The origin of these recorded values is PubChem BioAssay AID1460.

- ASSAY_TARGET: Microtubule-associated protein tau (Homo sapiens) (UniProt P10636)
- Sequence (P10636 561-689 P618L limits assumed): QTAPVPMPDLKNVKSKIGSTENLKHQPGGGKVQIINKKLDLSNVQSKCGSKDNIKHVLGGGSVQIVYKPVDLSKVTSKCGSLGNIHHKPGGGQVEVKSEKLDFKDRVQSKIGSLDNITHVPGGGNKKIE
- MEASUREMENT_NOTES: qHTS for Inhibitors of Tau Fibril Formation, Thioflavin T Binding; also: nearly all actives have a fitted effect of over 55% in size
- CONDITION_NOTES: recombinant tau K18 P301L, heparin-induced fibrillization, ThT fluorescence; series mostly up to 57.4 µM
The whole screen tested about 270,000 compounds, of which about 5,800 (2.1%) were called active. About 16% were inconclusive and are not listed. Calls follow the shape of the dose curve; as a rule, active = well fitted inhibition curve with a large enough effect; inconclusive = small, poorly fitted or top-dose-only effect; inactive = flat fitted curve, though single readings scatter. Only a selection was taken, and actives are over-represented in it overall.
Result category, one only: 1 = active, -1 = inactive

Look over these answered cases.
Exercise: Short answer needed: outcome of this test for COc1cc(/C=N/NC(=O)Nc2ccccc2)ccc1OCCOc1ccccc1C ?
Solution: -1

Exercise: Hey, what did the test say about Cc1cccc(C)c1NC(=O)CSc1ccc([N+](=O)[O-])cn1 ?
Solution: -1

Exercise: Hi, sorry to bother you, what did the test record for Cc1cccc(-n2c(C)cc(/C=N\NC(=O)c3cccs3)c2C)c1 ?
Solution: -1

Exercise: Hello, I am checking results. What call was entered for CCOC(=O)c1c(C)nc2c(c1C)c(=O)oc1ccccc12 ?
Solution: -1

Exercise: Which result was noted for this compound in the test: Cc1ccc(-n2c(C)cc(/C=N/Nc3ccc([N+](=O)[O-])cn3)c2C)c(C)c1
Solution: 1

Exercise: So what was the verdict on CCN(CC)c1ccc2c(Nc3ccccc3)c(C=O)c(=O)oc2c1 in this test?
Solution: -1

Exercise: Query: recorded result category for CCOc1cccc(CNC(=O)c2ccc(N3CCCC3)c(NC(=O)Nc3ccccc3CC)c2)c1 in this test
Solution: -1

Exercise: What did this assay record as the result for Cc1ccc(-n2c(C)cc(/C=N\NC(=O)CC(=O)NC(C)C)c2C)cc1 ?
Solution: -1

Exercise: Entry OCC(CO)(CO)NCc1ccc(-c2ccccc2)cc1 : call = ?
Solution: -1

Exercise: Hi, sorry to bother you, what did the test record for Cc1ccc(S(=O)(=O)Nc2nc3ccccc3s2)cc1[N+](=O)[O-] ?
Solution: -1

Could you now look at the following compound, please?
Exercise: What did the test return for CN1/C(=C\C(=O)c2cccnc2Cl)C(C)(C)c2ccccc21 ?
Solution: -1

====

- ASSAY_TARGET: Microtubule-associated protein tau (Homo sapiens) (UniProt P10636)
- MEASUREMENT_NOTES: qHTS for Inhibitors of Tau Fibril Formation, Thioflavin T Binding; also: nearly all actives have a fitted effect of over 55% in size
- CONDITION_NOTES: recombinant tau K18 P301L, heparin-induced fibrillization, ThT fluorescence; series mostly up to 57.4 µM
In all, about 270,000 compounds went through this assay and about 5,800 (2.1%) were called active. Another 16% or so got no clear call; they are omitted. The call rests on the fitted dose curve; in most records, active means well fitted inhibition curve with a large enough effect; inconclusive means small, poorly fitted or top-dose-only effect; inactive means flat fitted curve, though single readings scatter. The sample holds actives, similar compounds and a random draw of the others, so the mix is not that of the screen.
// one of yes (1) = active, no (0) = inactive, no free text

// known answers, use as guide
Exercise: Test call, this compound: COc1ccc(S(=O)(=O)c2cn(C)c3cc(N4CCCCC4)c(F)cc3c2=O)cc1
Solution: no (0)

Exercise: Just curious, what result did Cc1ccc2nc(/C(C#N)=C/c3ccc(-c4ccc(C(=O)OC(C)C)cc4)o3)[nH]c2c1 get here?
Solution: no (0)

Exercise: Kindly provide the recorded test outcome for the following compound: CN(Cc1ccccc1)c1ccc(-c2nc(-c3ccccc3)no2)cc1[N+](=O)[O-]
Solution: no (0)

More entries:
Exercise: I'd appreciate the recorded outcome for O=C(NCc1cccnc1)C(=O)NCC(c1cccnc1)N1CCN(c2ccccc2)CC1 (stereo not given) from this test.
Solution: no (0)

Exercise: Please share the test call associated with CCOC(=O)c1ccc(-c2ccc(/C=C(\C#N)C(=O)Nc3ccc(OCC)cc3)o2)cc1 .
Solution: yes (1)

====

- ASSAY_TARGET: Microtubule-associated protein tau (Homo sapiens)
- MEASUREMENT_NOTES: qHTS for Inhibitors of Tau Fibril Formation, Thioflavin T Binding; also: nearly all actives have a fitted effect of over 55% in size
- CONDITION_NOTES: recombinant tau K18 P301L, heparin-induced fibrillization, ThT fluorescence; series mostly up to 57.4 µM
Screen size: about 270,000 compounds; about 5,800 (2.1%) were called active. Another 16% or so got no clear call; they are omitted. Calls come from the whole dose curve; as a rule, active = well fitted inhibition curve with a large enough effect; inconclusive = small, poorly fitted or top-dose-only effect; inactive = flat fitted curve, though single readings scatter. Only a selection was taken, and actives are over-represented in it overall.
Hi there, use one of these labels in your reply, thanks! active, inactive

Recorded results for 8 molecules are shown here.
Exercise: // return assay outcome for COc1ccc(C(=O)NN2C(=O)C3C(c4ccccc4)C=CC(c4ccccc4)C3C2=O)cc1 (stereo not given)
Solution: inactive

Exercise: What outcome does the record of this test show for c1ccc(-c2oc3ncnc(N4CCOCC4)c3c2-c2ccccc2)cc1 ?
Solution: inactive

Exercise: Test call for this molecule, please: Cc1nn(-c2ccc(N3CCCCC3)nn2)c(C)c1CCC(=O)NCc1ccccc1F
Solution: inactive

Exercise: Would you mind telling me which call this test gave CCCN(CCC)C(=O)C1CCCN(c2ncnc3c2nc2n3CCCCC2)C1 (stereo not given) ?
Solution: inactive

Exercise: How did this test come out for Cc1nn(C(C)C(=O)Nc2ccc(C(C)C)cc2)c(=O)c2c1sc1ccccc12 (stereo not given) ?
Solution: inactive

Exercise: // outcome(item) with item = Cc1cc(C)cc(-n2c(SCC(=O)NCC3CCCO3)nc3c([nH]c4ccccc43)c2=O)c1 (stereo not given)
Solution: inactive

Exercise: Called result for CCOC(=O)C1CCCN(C(=O)Cn2ncc3c(C)n(Cc4ccc(F)cc4)c(C)c3c2=O)C1 (stereo not given)
Solution: inactive

Exercise: What outcome does the record of this test show for Nc1nc(SCc2ccccc2Cl)n[nH]1 ?
Solution: inactive

***
Exercise: Hello, I am checking results. What call was entered for CCOc1ccc(CNCc2c(C(=O)O)c(C)n(Cc3cccc(OC)c3)c2C)cc1OC ?
Solution: inactive

Exercise: Record lookup: outcome of this test for Fc1ccccc1Oc1ncnc2c1oc1ccccc12 ?
Solution: inactive

====

- ASSAY_TARGET: Microtubule-associated protein tau (Homo sapiens)
- MEASUREMENT_NOTES: qHTS for Inhibitors of Tau Fibril Formation, Thioflavin T Binding; also: nearly all actives have a fitted effect of over 55% in size
- CONDITION_NOTES: recombinant tau K18 P301L, heparin-induced fibrillization, ThT fluorescence; series mostly up to 57.4 µM
The whole screen tested about 270,000 compounds, of which about 5,800 (2.1%) were called active. Not shown: some 16% with an inconclusive outcome. The call rests on the fitted dose curve; in most records, active means well fitted inhibition curve with a large enough effect; inconclusive means small, poorly fitted or top-dose-only effect; inactive means flat fitted curve, though single readings scatter. This excerpt belongs to a sample that is enriched for actives.
Select the correct class. Options are active, inactive and nothing else.

Some solved entries appear below for comparison.
Exercise: Which outcome did this test record for the molecule Oc1ccc(N=Cc2sc3ccccc3c2Cl)cc1 ?
Solution: active

Exercise: Assay outcome for Cc1ccc(Cl)cc1N1CCN(C(=O)c2cccn3c(=O)c4cc(Cl)ccc4nc23)CC1 : what was it?
Solution: inactive

Exercise: Assay result, entry CCOc1ccc(/C=N/NC(N)=S)cc1 — outcome?
Solution: inactive

Next:
Exercise: How was O=C(NCC(c1ccc(Cl)cc1)N1CCOCC1)c1ccccc1F (centres undefined) classified in this test?
Solution: inactive

====

- ASSAY_TARGET: Microtubule-associated protein tau (Homo sapiens) (UniProt P10636)
- MEASUREMENT_NOTES: qHTS for Inhibitors of Tau Fibril Formation, Thioflavin T Binding; also: nearly all actives have a fitted effect of over 55% in size; also: potency is read from the fitted curve at half-maximal effect
- CONDITION_NOTES: recombinant tau K18 P301L (four-repeat tau fragment), heparin-induced fibrillization, ThT fluorescence; series mostly up to 57.4 µM
Among all 270,000 compounds or so, about 5,800 (2.1%) were called active. Another 16% or so got no clear call; they are omitted. Many of the other results were omitted from the sample, so actives are more common in it than they were.
MEASURED_ATTRIBUTE: Potency

Below are worked cases with known answers.
Exercise: Given the compound COc1ccc2c(c1OC)C(=O)OC2c1c(O)nc(SC)n(-c2ccccc2)c1=O (stereo not drawn) , write its reported Potency.
Solution: inactive

Exercise: Return reported Potency. Input compound: O=C(Nc1nc(-c2ccc(-c3ccccc3)cc2)cs1)c1cnccn1
Solution: inactive

Exercise: Note Potency for the compound shown: Cc1cc(C)cc(NC(=O)c2cnc3sc(N4CCCC4)nn3c2=O)c1
Solution: inactive

Exercise: Note down Potency recorded for N#Cc1c(NC(=O)CCCl)sc2c1CCCCC2
Solution: inactive

Exercise: Read the entry CCCCc1nc(NCc2ccccc2)c(C#N)c2c1CCCC2 and write its reported Potency.
Solution: inactive

Exercise: Could you please provide reported Potency for COc1ccc2c(c1OC)C(=O)OC2Nc1nc(-c2ccccc2)cs1 (stereo not drawn) ? Thanks!
Solution: 17.8 µM (active)

Exercise: Output Potency of COc1ccc(C/C(C)=N/NC(=O)c2cc(C)oc2C)cc1
Solution: inactive

Exercise: Look up and report measured Potency for this entry: CCOC(=O)c1c(C)[nH]c(C)c1S(=O)(=O)NCC(=O)NCc1cccc(C)c1
Solution: inactive

New cases:
Exercise: Using the record for Cc1ccc(Nc2nnc(SCc3ccccc3)s2)cc1 , state its measured Potency.
Solution: inactive

Exercise: Hello, please tell me recorded Potency for this one: CC(=O)N1c2ccccc2CC1C(=O)N1CCN(c2ccc(F)cc2)CC1 (stereo not drawn)
Solution: inactive

Exercise: Supply measured Potency of Cc1ccc(-n2c(SCC(=O)Nc3cccc(F)c3)nc3c(oc4ccccc43)c2=O)cc1C in your reply.
Solution: inactive

Exercise: Tell me Potency reported for O=C(CSC1=NCCS1)Nc1nc(-c2ccccc2)cs1
Solution: inactive

Exercise: Give the measured Potency for CN1/C(=c2/s/c(=C3/C(=O)N(c4ccccc4)NC3=Nc3ccccc3)n(C)c2=O)C(C)(C)c2ccccc21
Solution: 7.94 µM (active)
